Test system: SW-620 colon
experiment notes: NCI-60 one-dose screen, 48 h
measurement conditions: 10 µM unless noted
The panel holds about 83,000 compounds, 20% with a hit somewhere; the sample as a whole holds those more often. The source made the active and inactive calls. Rule for the calls: active = growth percent below 10; inactive = the rest.
Use one of these outcomes when replying: active, inactive

>  <compound>
O=[N+]([O-])c1cnc(Sc2ccncn2)c([N+](=O)[O-])c1

>  <label>
inactive

$$$$

[Q] Outcome? COc1ccc(-c2nn(-c3ccccc3)cc2/C=C2\SC(=S)N(CCc3ccc(O)cc3)C2=O)cc1
[A] inactive

[Q] Outcome? CN(C)c1ccc2[nH]c3c(C(N)=O)cc(=O)c(=O)c=3oc2c1
[A] inactive

[Q] Outcome? CCC(C)CC(C)C(=O)c1c(O)ccn(O)c1=O (stereo not drawn)
[A] inactive

[Q] Outcome? COc1ccc2c(c1)C(=O)c1c-2c(OCCN(C)C)nc2cc(OC)ccc12
[A] active

[Q] Outcome? c1cnc2n[nH]c(Nc3ncnc4c3sc3ncccc34)c2c1
[A] inactive

====

System: UACC-257 melanoma
experiment notes: NCI-60 one-dose screen, 48 h
measurement conditions: 10 µM unless noted
Compounds without any hit were thinned out: in the full panel of roughly 83,000, 20% have a hit. Calls of active or inactive are those of the source. Rule for the calls: active = growth percent below 10; inactive = the rest.
Use one of these outcomes when replying: active, inactive

Here's what some known entries look like.
>  <item smiles>
COc1ccc2nccc(/C=C/c3ccnc4ccc(OC)cc34)c2c1

>  <target entity>
UACC-257 melanoma

>  <label>
inactive

$$$$
>  <item smiles>
Cn1cc(-c2nc(-c3c[nH]c4ncc(F)cc34)cs2)c2cccnc21

>  <target entity>
UACC-257 melanoma

>  <label>
inactive

$$$$

[Q] Outcome? Cc1ccc(C(C)C)cc1NC(=O)Nc1ccc([N+](=O)[O-])cc1
[A] active

[Q] Outcome? c1ccc(N2CCN(c3nncc4ccccc34)CC2)nc1
[A] inactive

[Q] Outcome? Cc1cc(NC(=O)c2ccc(N)cc2)ccc1N=Nc1ccc2c(O)c(N=Nc3ccc(Cl)c(S(=O)(=O)O)c3)c(S(=O)(=O)O)cc2c1
[A] inactive

====

Tested on: UACC-62 melanoma
experiment notes: NCI-60 one-dose screen, 48 h
measurement conditions: 10 µM unless noted
Compounds without any hit were thinned out: in the full panel of roughly 83,000, 20% have a hit. Calls of active or inactive are those of the source. The calls were made as follows: active = growth percent below 10; inactive = the rest.
Use one of these outcomes when replying: label 1 = active, label 0 = inactive

>  <molecule>
C=C(C)[C@@H]1C/C=C(/C=O)CC[C@@H]2O[C@@]2(C)CC/C=C(\C)CC1

>  <target entity>
UACC-62 melanoma

>  <label>
label 0

$$$$
>  <molecule>
COc1cc(OC)c2cc(C(=O)O)c(=O)oc2c1

>  <target entity>
UACC-62 melanoma

>  <label>
label 0

$$$$
>  <molecule>
CCCC[N+](CCCC)=c1ccc2nc3c(C)cc(N(CC)CC)cc3sc-2c1

>  <target entity>
UACC-62 melanoma

>  <label>
label 1

$$$$

[Q] Outcome? Cc1c(C(N)=O)sc2c1c(=O)n(Cc1ccccc1)c1nnc(SCC(=O)Nc3ccc(Cl)cc3)n21
[A] label 0

[Q] Outcome? CCN(CC)c1ccc(C(O)C2=CC(=O)c3ccccc3C2=O)cc1 (stereo unspecified)
[A] label 1

[Q] Outcome? COc1cc(-c2cc(C(=O)Nc3nc4ccccc4s3)nc3cc(-c4ccccc4)nn23)cc(OC)c1OC
[A] label 0

[Q] Outcome? C=Cc1nn2c(CCC(=O)c3nc4ccccc4[nH]3)nnc2s1
[A] label 0

[Q] Outcome? Cc1scc2c1N(C(=O)CN1CCN(C)CC1)c1ccccc1NC2=O
[A] label 0

[Q] Outcome? CN(C)c1nc(N)nc(Cn2c(-c3nonc3N)nc3ccccc32)n1
[A] label 0
